Where these numbers come from: ChEMBL document CHEMBL1201862

# System: IGROV-1
# assay.method.text: NCI tumour cell line growth inhibition, 48 h
Activity calls are given as the source filed them. Rule as the data show it: active = GI50 up to about 1.1 µM and inactive = higher.
Classes used: class 1 (active), class 0 (inactive)

{"columns": ["compound", "target.under.test", "cat"],
 "data": [
  ["C=CCOC(C)n1c(C)cc(=O)n(C(C)OCC=C)c1=O (stereo unspecified)", "IGROV-1", "class 0"],
  ["O=C(Cn1c(C(=O)/C=C/c2ccco2)nc2ccccc21)c1ccc(Cl)cc1", "IGROV-1", "class 0"],
  ["CN(C)Cc1cc(C(C)(C)C)ccc1-c1ccc(C(C)(C)C)cc1CN(C)C", "IGROV-1", "class 0"],
  ["CCCCCN(CCCCC)C(=O)[C@@H](CCC(=O)O)NC(=O)c1cc2ccccc2[nH]1", "IGROV-1", "class 0"],
  ["CC(=O)Nc1ccc(-c2nc3ccccc3s2)cc1I", "IGROV-1", "class 1"],
  ["COc1cc([C@@H]2c3cc4c(cc3[C@@H](Nc3ccc(NC(=O)c5cc([N+](=O)[O-])cn5C)cc3)[C@H]3COC(=O)[C@H]23)OCO4)cc(OC)c1O", "IGROV-1", "class 1"],
  ["O=C1CCCCC/C1=C\\c1cccc(F)c1", "IGROV-1", "class 0"],
  ["COC1=CC(=O)c2ccc(C(C)C)cc2C1(C)C1=NC(C)(C)CO1 (stereo unspecified)", "IGROV-1", "class 0"],
  ["Nc1c2c(nc3ccccc13)-c1ccccc1CCC2", "IGROV-1", "class 0"],
  ["CCOC(=O)c1ncn2c1[nH]c(=O)c1ccccc12", "IGROV-1", "class 0"],
  ["CC1=NN(C(=O)CC(=O)N(C(=O)c2ccccc2)c2ccc(Cl)cc2)C(=O)C1/N=N/c1ccc([N+](=O)[O-])cc1 (stereo unspecified)", "IGROV-1", "class 0"],
  ["O=C1CC(=O)NC(NN2C(=O)CSC2C(=O)c2ccco2)=N1 (stereo unspecified)", "IGROV-1", "class 0"],
  ["CC1=NN=C(NCCN(C)C)C/C1=C/c1ccccc1Cl", "IGROV-1", "class 0"],
  ["O=C(CSc1nc2ccc(I)cc2c(=O)n1Cc1ccccc1)NN1C(=O)CCC1=O", "IGROV-1", "class 0"],
  ["O=c1[nH]c(=O)n(COCCO)c2ccc(Br)cc12", "IGROV-1", "class 0"],
  ["COc1ccc(/C=N/n2c(C)nc3c(sc(=S)n3-c3ccccc3)c2=O)cc1", "IGROV-1", "class 0"],
  ["CCOC(=O)CCC(NC(=O)c1ccc(CNc2nc3cc(N)cc(N)c3nc2-c2ccccc2)cc1)C(=O)OCC (stereo unspecified)", "IGROV-1", "class 0"],
  ["O=C1OCC2=C1C(c1ccc3c(c1)OCO3)c1cc3c(cc1O2)OCO3 (stereo unspecified)", "IGROV-1", "class 1"],
  ["CC(=O)OC1=CC(n2cc(F)c(=O)[nH]c2=O)OC(C)C1=O (stereo unspecified)", "IGROV-1", "class 0"],
  ["COc1ccc(-c2c3c(n(C4OC(CO)C(O)C(O)C4O)c(=S)c2C#N)CCC3)cc1 (stereo unspecified)", "IGROV-1", "class 0"],
  ["N#CCC(=O)NC1C2CC3CC(C2)CC1C3 (stereo unspecified)", "IGROV-1", "class 0"]
]}
